Entries and their Ratio
System: Enterococcus faecalis
protocolNotes: Ratio of linezolid MIC to compound MIC for Enterococcus faecalis SR1004 clinical isolate
Type: functional
attributeMeasured: Ratio

[
  {
    "structureSmiles": "COC(=S)NC[C@H]1CN(c2cc(F)c(N3CCON(C(=O)CO)CC3)c(F)c2)C(=O)O1",
    "measurementTarget": "Enterococcus faecalis",
    "measuredValue": 4
  },
  {
    "structureSmiles": "COC(=S)NC[C@H]1CN(c2ccc(N3CCNN(C(=O)CO)CC3)c(F)c2)C(=O)O1",
    "measurementTarget": "Enterococcus faecalis",
    "measuredValue": 4
  },
  {
    "structureSmiles": "COC(=S)NC[C@H]1CN(c2cc(F)c(N3CCNN(C(=O)CO)CC3)c(F)c2)C(=O)O1",
    "measurementTarget": "Enterococcus faecalis",
    "measuredValue": 4
  },
  {
    "structureSmiles": "CC(=S)NC[C@H]1CN(c2cc(F)c(N3CCON(C(=O)CO)CC3)c(F)c2)C(=O)O1",
    "measurementTarget": "Enterococcus faecalis",
    "measuredValue": 4
  },
  {
    "structureSmiles": "CC(=S)NC[C@H]1CN(c2ccc(N3CCNN(C(=O)CO)CC3)c(F)c2)C(=O)O1",
    "measurementTarget": "Enterococcus faecalis",
    "measuredValue": 4
  },
  {
    "structureSmiles": "CC(=S)NC[C@H]1CN(c2cc(F)c(N3CCNN(C(=O)CO)CC3)c(F)c2)C(=O)O1",
    "measurementTarget": "Enterococcus faecalis",
    "measuredValue": 4
  }
]
